# method.description: Rm from reversed phase partition chromatography (lipophilic-hydrophilic balance)
parameter: chromatographic logP
Write no unit; give the number alone.

Task: GET /values?readout=chromatographic logP&item= CS(=O)(=O)Nc1ccc(Nc2c3ccccc3nc3ccccc23)c(NCC(O)CO)c1 (centres unmarked)
Result: 0.3

Task: GET /values?readout=chromatographic logP&item= CNc1cc(NS(C)(=O)=O)ccc1Nc1c2ccccc2nc2cc(F)ccc12
Result: 0.28

Task: GET /values?readout=chromatographic logP&item= CNc1cc(NS(C)(=O)=O)ccc1Nc1c2ccc(C)cc2nc2c(OC)cccc12
Result: 0.33

Task: GET /values?readout=chromatographic logP&item= CNc1cc(NS(C)(=O)=O)ccc1Nc1c2ccccc2nc2ccccc12
Result: 0.17

Task: GET /values?readout=chromatographic logP&item= CNc1cc(NP(=O)(OC)OC)ccc1Nc1c2ccccc2nc2ccccc12
Result: 0.32
